molecular target: human ether-à-go-go-related gene (hERG) potassium channel (human); assay: primary screen, population patch clamp on CHO cells stably expressing hERG; higher = less effect of the substance;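 also: peak tail current of the secondary pulse compared with the same well before compound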
Sequence (Q12809 whole entry, looked up): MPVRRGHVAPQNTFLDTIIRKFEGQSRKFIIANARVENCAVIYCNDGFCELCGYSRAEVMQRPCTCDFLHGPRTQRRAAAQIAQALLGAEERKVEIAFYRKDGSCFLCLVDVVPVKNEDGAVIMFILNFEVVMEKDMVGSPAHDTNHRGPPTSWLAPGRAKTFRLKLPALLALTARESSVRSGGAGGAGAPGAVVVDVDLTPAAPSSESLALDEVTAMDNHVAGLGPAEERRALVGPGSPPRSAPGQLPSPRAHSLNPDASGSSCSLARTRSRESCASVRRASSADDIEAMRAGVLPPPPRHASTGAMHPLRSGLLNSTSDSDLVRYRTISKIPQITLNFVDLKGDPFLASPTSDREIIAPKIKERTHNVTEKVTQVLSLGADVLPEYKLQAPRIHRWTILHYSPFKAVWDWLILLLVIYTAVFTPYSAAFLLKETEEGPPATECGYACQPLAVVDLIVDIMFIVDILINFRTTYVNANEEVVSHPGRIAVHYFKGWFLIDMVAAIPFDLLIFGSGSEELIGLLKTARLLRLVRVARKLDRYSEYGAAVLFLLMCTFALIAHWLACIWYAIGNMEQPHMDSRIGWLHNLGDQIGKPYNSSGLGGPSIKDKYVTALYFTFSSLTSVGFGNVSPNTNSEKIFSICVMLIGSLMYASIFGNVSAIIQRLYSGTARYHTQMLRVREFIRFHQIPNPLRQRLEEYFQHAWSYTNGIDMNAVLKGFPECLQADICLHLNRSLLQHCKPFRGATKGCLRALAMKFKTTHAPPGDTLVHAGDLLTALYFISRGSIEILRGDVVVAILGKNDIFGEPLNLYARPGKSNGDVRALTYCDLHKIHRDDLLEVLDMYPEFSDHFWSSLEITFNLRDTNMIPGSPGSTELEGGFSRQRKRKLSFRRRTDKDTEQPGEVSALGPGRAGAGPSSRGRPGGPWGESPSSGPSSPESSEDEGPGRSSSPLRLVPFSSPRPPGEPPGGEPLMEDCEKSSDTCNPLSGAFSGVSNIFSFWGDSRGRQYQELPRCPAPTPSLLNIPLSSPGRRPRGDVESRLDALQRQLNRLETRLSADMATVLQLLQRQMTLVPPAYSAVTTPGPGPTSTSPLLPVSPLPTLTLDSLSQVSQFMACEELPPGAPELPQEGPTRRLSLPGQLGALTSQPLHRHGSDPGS
In all, about 310,000 compounds went through this assay and about 14,000 (4.5%) showed an effect of 50% or more. The effect is printed as a negative number. The list comes from a sample in which strong results are over-represented; it also holds close analogues and randomly drawn compounds.
Field: hERG current change (%, negative = inhibition) at 10uM. Provide a value for each of the compounds that follow.
Give your result in % as a bare value.

Task: Write down hERG current change (%, negative = inhibition) at 10uM measured for item Cc1ccc(OCC(=O)N2CCN(S(=O)(=O)c3ccc(Cl)cc3)CC2)c([N+](=O)[O-])n1
Output: -48.8

Task: Answer with reported hERG current change (%, negative = inhibition) at 10uM of CC(=O)C1C2c3ccccc3OC1(C)N=c1s/c(=C/c3cn(C)nc3C)c(=O)n12 (stereo not drawn)
Output: -0.454

Task: Please report hERG current change (%, negative = inhibition) at 10uM for the following compound: O=C(CSc1nnc(-c2ccccc2)n1C1CCCCC1)N1CCCC1
Output: -6.76

Task: Annotate the compound O=[N+]([O-])c1cccc(C(=NCc2ccccc2)NO)c1 with its measured hERG current change (%, negative = inhibition) at 10uM.
Output: 15.9

Task: Using the record for CCc1ccc(-c2cc(C)no2)cc1S(=O)(=O)N1CCOc2ccc(C)cc21 , state its measured hERG current change (%, negative = inhibition) at 10uM.
Output: 13.1

Task: Return hERG current change (%, negative = inhibition) at 10uM for the following compound: CC1CN(c2nc3c(c(=O)n(Cc4ccc(Cl)cc4)c(=O)n3C)n2C)CC(C)O1 (stereo not drawn)
Output: -31.2
